Each recorded value in this set is attributed to ChEMBL document CHEMBL4038309.

Target: DNA topoisomerase 1 (Homo sapiens)
Assay: Inhibition of recombinant Top1 (unknown origin) assessed as Top 1 mediated DNA cleavage using 3'-[32P]-labeled 117 bp DNA as substrate at 0.1 to 100 uM after 20 mins by PAGE analysis
Active and inactive are the calls of the source. The rule behind the calls is not given here.
Possible outcomes: active, inactive

[[record]]
smiles_structure = "CNCCCn1c2c(c3ccc(Cl)cc3c1=O)C(=O)c1cc(OC)cnc1-2"
category = "active"

[[record]]
smiles_structure = "CNCCCn1c2c(c3ccc(F)cc3c1=O)C(=O)c1cc(OC)cnc1-2"
category = "inactive"

[[record]]
smiles_structure = "COc1cnc2c(c1)C(=O)c1c-2n(CCCN2CCOCC2)c(=O)c2cc(Cl)ccc12"
category = "active"

[[record]]
smiles_structure = "COc1cnc2c(c1)C(=O)c1c-2n(CCCn2ccnc2)c(=O)c2cc([N+](=O)[O-])ccc12"
category = "active"

[[record]]
smiles_structure = "COc1cnc2c(c1)C(=O)c1c-2n(CCCNC2=NCCS2)c(=O)c2cc(Cl)ccc12"
category = "active"

